Test system: HCC-78
Test: relative viability (nuclei count vs DMSO), 5 days (fraction); higher = more cells survive
Settings: first compound 0.8 µM
Mark 1 for relative viability under 0.4, -1 if at or over.

Prompt line: relative viability under 0.4? Item: Nc1cccc2c1CN(C1CCC(=O)NC1=O)C2=O (stereo unspecified) [Lenalidomide] + Cc1nc(Nc2ncc(C(=O)Nc3c(C)cccc3Cl)s2)cc(N2CCN(CCO)CC2)n1 [Dasatinib] (partner 0.075 µM)
Response line: 1

Prompt line: relative viability under 0.4? Item: Nc1cccc2c1CN(C1CCC(=O)NC1=O)C2=O (stereo unspecified) [Lenalidomide] + COc1cccc2cc(-c3nc([C@H]4CC[C@H](C(=O)O)CC4)n4ncnc(N)c34)[nH]c12 [OSI-027] (partner 0.5 µM)
Response line: 1

Prompt line: relative viability under 0.4? Item: Nc1cccc2c1CN(C1CCC(=O)NC1=O)C2=O (stereo unspecified) [Lenalidomide] + N=C(N)NC(=N)NCCc1ccccc1 [Phenformin] (partner 250 µM)
Response line: -1

Further cases:
Prompt line: relative viability under 0.4? Item: Nc1cccc2c1CN(C1CCC(=O)NC1=O)C2=O (stereo unspecified) [Lenalidomide] + CC(=O)Nc1cccc(-n2c(=O)n(C3CC3)c(=O)c3c(Nc4ccc(I)cc4F)n(C)c(=O)c(C)c32)c1 [Trametinib] (partner 0.02 µM)
Response line: -1

Prompt line: relative viability under 0.4? Item: Nc1cccc2c1CN(C1CCC(=O)NC1=O)C2=O (stereo unspecified) [Lenalidomide] + O=C(c1cc(Cc2n[nH]c(=O)c3ccccc23)ccc1F)N1CCN(C(=O)C2CC2)CC1 [Olaparib] (partner 8 µM)
Response line: -1

Prompt line: relative viability under 0.4? Item: Nc1cccc2c1CN(C1CCC(=O)NC1=O)C2=O (stereo unspecified) [Lenalidomide] + C[C@@H](Oc1cc(-c2cnn(C3CCNCC3)c2)cnc1N)c1c(Cl)ccc(F)c1Cl [Crizotinib] (partner 1 µM)
Response line: 1
